B1: Zinc finger homeobox protein 4, residues 2086 to 2141; numbered along this chain, Q86UP3 (parent)
chain: RPRTRITDDQLKILRAYFDINNSPSEEQIQEMAEKSGLSQKVIKHWFRNTLFKERQ

- Variants of: B1
- TEST SUMMARY: abundance fitness (aPCA) (normalised: wild type 0, dead -1); higher = more abundant; growth selection in yeast, the domain comes from the species named
- PROTOCOL CONDITIONS: Homo sapiens
Class 1: abundance fitness at least -0.1. Class -1: abundance fitness below -0.1.

S36R	-1
R48M	1
S23N	1
Q40M	1
K35Y	-1
N49W	-1
S39P	-1
H45A	1
E54S	1
K53G	1
E34P	-1
